- assayed.system: muscarinic receptors
- assay.notes: inhibition of binding of 3H-oxotremorine-M to muscarinic receptors
- experimental.parameters: 3 nM 3H-oxotremorine-M, rat cerebral cortical membranes, pH 7.4, 15 min, 25° C.; read-out: Inhibition of ^3 H-Oxo
Where a name gives a salt, the structure may show the parent alone.
pIC50: recorded values
Scale for pIC50: -log10 of concentration given in mol/L; no unit attached.

# count of solved cases: 8
{"columns": ["compound", "readout", "test.result"],
 "data": [
  ["CCCOc1nsnc1[C@@H]1CN2CCC[C@@H]1C2 (relative stereo) [Compound 119]", "pIC50", 9.05],
  ["FC(F)(F)CCCSc1nsnc1[C@@H]1CN2CCC[C@@H]1C2 [Compound 130, oxalate]", "pIC50", 8.74],
  ["c1ccc(OCCSc2nsnc2[C@@H]2CN3CCC[C@@H]2C3)cc1 (relative stereo) [Compound 133]", "pIC50", 8.89],
  ["CCCCCSc1nsnc1[C@@H]1CN2CCC[C@@H]1C2 (relative stereo) [Compound 31]", "pIC50", 8.74],
  ["N#CCSc1nsnc1C1CN2CCC1CC2 (centres unmarked) [Compound 103, oxalate]", "pIC50", 8.57],
  ["CCCCCOc1nsnc1[C@@H]1CN2CCC[C@@H]1C2 (relative stereo) [Compound 59]", "pIC50", 9.00],
  ["Cc1nnc(SCCCCSc2nsnc2C2CN3CCC2CC3)s1 (centres unmarked) [Compound 107, oxalate]", "pIC50", 9.00],
  ["CCCCSc1nsnc1[C@H]1CN2CCC[C@H]1C2 [Compound 112, D-tartrate]", "pIC50", 9.22]
]}

q: Look up pIC50: CC(C)CCCSc1nsnc1[C@@H]1CN2CCC[C@@H]1C2 [Compound 158, oxalate]
a: 8.00

q: Note, next up: CSc1nsnc1C1CN2CCC1CC2 (centres unmarked) [Compound 131, oxalate]
a: 8.55

q: Note, next up: CCSc1nsnc1C1CN2CCC1CC2 (centres unmarked) [Compound 52, oxalate]
a: 8.74
